test: Cmax in Sprague-Dawley rat at 3 mg/kg, po by LC-MS/MS analysis; type: ADME, organism-based; details: in vivo
Metric: Cmax (ng/mL)

1) Cc1ccc(OCCN2CCOCC2)cc1-c1ccnc(NC(=O)c2nc3n(n2)[C@H](c2ccccc2)C[C@@H]3F)c1: 8.9
